Test: yeast display, Sf9 membrane polyspecificity reagent, FACS + sequencing; frameworks hold sequencing errors
measured.endpoint: polyreactivity (PSR sort gate)

QVQLVESGGGLVQAGGSLRLSCAASGFIFTSYAMGWYRQAPGKERELVAAISKRGGSTYYADSVKGRFTISRDNAKNTVYLQMNSLKPEDTAVYYCATRYPQPYSPGYTYDYWGLGTQVTVSS | high polyreactivity
QVQLVESGGGLVQAGGSLRLSCAASGFTFVYYTMGWYRQAPGKERELVAAITSGGRTYYADSVKGRFTISRDNAKNTVYLQMNSLKPEDTAVYYCAAPDRYRGYIGYGYWGQGTQVTVSS | high polyreactivity
EVQLVESGGGLVQPGGSLRLSCAASGYIYSRYRMGWYRQAPGKGREFVAAISGGSSTNYADSVKGRFTISRDNSKNTVYLQMNSLRAEDTAVYYCAAYQIDSDPRVYWGQGTQVTVSS | low polyreactivity
QVQLVESGGGLVQAGGSLRLSCAASGGSFPDNARGWYRQAPGKERELVAAISFSGSSTYADSVKGRFTISRDNAKKTVNLQMNSLKPEDTAVYYCNTDGYIYRYRFDYWGQGTQVTVSS | low polyreactivity
QDQHVESGGGLVQAGGSLRLSCAASGRTFVPYAMGWYRQAPGKERELVATISRSGGRTNYADSVKGRFTISRDNAKNTVYIQMNSLKPEDTAVYYCAATGFLTWRHMYYWGQGTQVTVSS | high polyreactivity

Ask: Any idea what polyreactivity (PSR sort gate) was measured for QVQLVESGGGLVQAGGSLRLSCAAPGLTFWSYAMGWYRPAPGKERELVADITYRGGSTYYADSVKGRFTISRDNAKNTVYLQMNSLKPEDTAVYYCAARKKYRFDYWGQGTQVTVSS ?
Reply: high polyreactivity

###

Experiment: yeast display, Sf9 membrane polyspecificity reagent, FACS + sequencing; frameworks hold sequencing errors
measured.endpoint: polyreactivity (PSR sort gate)

QVQLVESGGGLVQAGGSLRLSCAASGSNFAINAMGWYRQAPGKERELVAAITRTASTYADSVKGRFTISRDNAKNTVYLQMNSLKPEDTAVYYCNADFAYRYYYWGQGTQVTVSS | low polyreactivity
QVQLVESGGGLVQAGGSLRLSCAASGFILEPNAMGWYRQAPGKERELVATISFSGGGTYYADSVKGRFTISRDNAKNNVYLQMNSLKPEDTAVYYCAAQGRDSDYVDFDYWGQGTQVTVSS | high polyreactivity
QVQLVESGGGLVQAGGSLRLSCAASGSIFVGNTMGWYRQAPGKERELVAALTWSGGRTYYADSVKGRFTISRDNEKNTVYLQMHSLKPEDTAVYYCNALANYIRYYYWGQGTQVTVSS | high polyreactivity
QVQLVESGGGLVQAGGSLRLSCDASGLIFWRNAMGWYRQAPGKERELVAGITSGGSTYYADSVKGRFTISRDNAKNTVYLQMNCLKPEDTAVYYCAKSTWQSYYYPRGSVYWGQGTQVTVSS | high polyreactivity
QVQRVESGGGLVQAGGSLRLSCAASGITFRGYAMGWYRQAPGKERELVAAINSRGGSTYYADSVKGRFTISRDNAKNTVYLQMNSLKPEDTAVYYCATRSFGRMDYWGQGTQVTVSS | high polyreactivity

Ask: Any idea what polyreactivity (PSR sort gate) was measured for QVQLVESGGGLVQAGGSLRLTCAASGSTFGLNAMGWYRQAPAKERELVAAITSRGTRTYYADSVKGRFTISRDNAKNTVYLQMNSLKPEDTAVYYCGKDSGATRYGEYDYWGQGTQVTVSS ?
Reply: low polyreactivity

Ask: How about this sequence: QVQLVESGGGLVQAGGSLRLSCAASGSIFERYSMGWYRQATGKERELFATISKSGDSKYYADSVKGRFTISRDNAKNTVYFQMNRLKPEDTAVYYCSADGWYETSDATFYYWGQGTQVNVSS
Reply: low polyreactivity

Ask: How about this sequence: QVQLVESGGGLVQAGGSLRLSCAASGFIFQVYAMGWYRQAPGKERELVAAISDDGSTNYADSVKGRFTISRDNAKYTVYLQMNSLKPEDTAVYYCAKESWGRLYYRYDYWGQGTQVTVSS
Reply: low polyreactivity

Ask: How about this sequence: QVQLVESGGGLVQAGGSLRLSCAASGIIFVRNAMGWYRKAPGKERELVAAISRSGGSTYYADSVKWRFTISRDNAKNTVYLQMNSLKPEDTAVYYCAAVLRLSSGYDYWGQGTQVTVSS
Reply: high polyreactivity

Ask: How about this sequence: QFQLVESVVGLVQAGGSLRLSCAASGTTFGVNDMRWYRQAPGKEREFVADITTSGGSTYYADSVKGRFTISRDNAKNTVYLQMNSLKPEDTAVYYCAADLWPFEHDDYWGQGTQVTVSS
Reply: low polyreactivity

Ask: How about this sequence: QVQLVESGGGLVQAGGSLRLSCAASGRIFQYYAMGWYRQAPGKERELVAAINSSGGRTYYADSVKGRFTISRDTAKNTVYLQMNSLTPEDTAVNSCNAVLSTRGMDYWGQGTQVTVSS
Reply: high polyreactivity

###

Assay: yeast display, Sf9 membrane polyspecificity reagent, FACS + sequencing; frameworks hold sequencing errors
measured.endpoint: polyreactivity (PSR sort gate)

QVQLVESGGGLVQAGGSLRLSCAASGFTFYNNAMGWYRQAPGKERELVAVITSNGGRTYYADSVKGRFTISRDNAKITVYLQMNSLKPEDTAVYYCAADYWGLGTQVTVSS | low polyreactivity
QVQLVESGGGLVQAGGSLRLRCAASGSTFGLYTMGWYSQAPGKERELVASISIVGSTYYADSVKGLFTSSRDNAKNTVYFQMNSLKPVDTAVYYCAADSEIIYTVRNRTYPWIMDYWGQGTQVTVSS | low polyreactivity

###

Test: yeast display, Sf9 membrane polyspecificity reagent, FACS + sequencing; frameworks hold sequencing errors
measured.endpoint: polyreactivity (PSR sort gate)

Below are worked cases with known answers.
QDQLVESGGGLVQAGGSLRLSCAASGSTFHWYVMGWYRQAPGKERELVAAISQSGGNTYYADSVKGRFTISRDNAKNTVYLQMNSLKPEVTAVFYCAADSVGVFNTTFFQFEYWGQGTQVTVSS | high polyreactivity
QVQLVESGGGLVNAGGSLRLICDASGLIFYKNAMGWYRQAPGKERELVAAISWRDGRTYYADSVKGRFTISRDNAKNTVYLQMISLIPEDSAVYYCNAVRGITSYDYYYWGQGTQVTVSS | high polyreactivity
QVQLVESGGGLVQAGGSLRLSCAASGRTLAPYAMGWYRQAPGKERELVAISTSGGSTYYADSVKGRFTISRDNGKNTVYLQMNSRKPEDNAVYYCAADGNSTGVYWWFYGFDYWGQGTQVTVSS | low polyreactivity
QVQLVESGGGLVQAGGSLRLSCAASGRTFYGNAMGWYRQAPGKERELVASITRRGGITYYADSVKGRFTISRDNAKNTVYLQMNSLKPEDTAVYYCAKAQLGPWSFEYWGQGTQVTVSS | high polyreactivity

For the next question, use this sequence.
Ask: Any idea what polyreactivity (PSR sort gate) was measured for QVQLVESGGGLVQAGGSLRLSCAASGSTFAANAMGWYRQAPGKERELVAAITSSGGSTFYADSVKGRFTISRDNAKNTVYLQMNSLKPEDTAVYYCNKDIERYVRIYDSWGQGTQVTVSS ?
Reply: low polyreactivity

###

Test: yeast display, Sf9 membrane polyspecificity reagent, FACS + sequencing; frameworks hold sequencing errors
measured.endpoint: polyreactivity (PSR sort gate)

Below are worked cases with known answers.
QFQLVESVGGLVQAGGSLRLSCAASGTTIPSYAMGWYRQAPGKERELVASITYSDGTTRYADSVKGRFTISRDNAKNTVYLQMNSLKPEDTAVYYCNAVYYREGMDYWGQGTQVTVSS | low polyreactivity
QVQLVESVGGLVQAGGSLRLSCAASGRIFWKYTMGWYRQAPGKERELVAAIRSAGGSTYYADSVKGRFTISRDNAKNTVYLQMNSLKPEDTAVYYCAAEPSQRYPLSGYYYWGQGTQVTVSS | low polyreactivity
QVQLVESGGGLVQAGGSLRLSCAASGSTSWSNARGWYRQAPGKERELLAAITTGASTYYADSVKGRFTMSRDNAKNTVYYQMNSLKPEDTAVYYCAADPWVLWSYYYWGQGTQVTVSS | low polyreactivity
QVQLVESGGGLVQAGGSLRLSCAASGYIFSKYALGWYRQAPGKERELVASITGRGSRTYYADSVKGRFTISRDNAKNTVYLQMNSLKAEDTAVYYCAADWYGQKTSNRWYFRPGYVYWGQGTQVTVSS | high polyreactivity
QVQLVESGGGLDQAGGSLRLSCAASGRTIRYYTMGWYRQAPGTERELVATIRRGGTTYYADSVKGRFTISRDNAKNTVYLQMNSLKPEDTAVYYCAKESLYQYDYWGQGTQVTVSS | low polyreactivity

Ask: Any idea what polyreactivity (PSR sort gate) was measured for QVQLVESGGGLVQAGGSLRLSCAASGRIFYPNAMGWYRQAPGKERELVAAISWSGGSTYYADSVKGRFTISRDNAKNTVYLQMNSLKPEDTAVYYCNAEYRYYQKTPGRYTNVEYDYWGQGTQVTVSS ?
Reply: low polyreactivity

Ask: How about this sequence: QVQLVESGGGLVQAGGSLRLSCAASGSIFSTNAIGGYRQAPGTQRELVAVITGIGGITYYADSVKGRFTISRDNAKKTVYLQRNSLKPDDTAVYYCADDPISEFSWGVKDRYDYWGQGTQVTVSS
Reply: low polyreactivity
